# target-or-system: T1, human CD4 on human PBMCs (human, UniProt P01730 26-458)
# T1 construct: whole, on cells; also called hCD4
# measurement-notes: FACS, clonal hybridoma supernatant on PBMCs
Attribute: % CD4 Stain
I only need the number, in %, no unit after it.

Inquiry: Give the measured % CD4 Stain of 75110_06G04A (antibody, V domains shown) VH: QVQLLESGPGLVKPSETLSLTCTVSGGSISSYYWSWIRQPAGKGLEWIGRIYISGSTNYNPSLKSRVTMSIDTSENQFSLNLSSVTAADTAVYYCARELERPYYYGMDVWGQGTTVTVSS VL: DIQMTQSPSSLSASVGDRVTITCQASQDISNYLNWYQQKPGKAPKLLIYNASTLETGVPSRFSGSGSGTDFTFTISSLQPEDIATYYCQQYDNLPLTFGGGTKVEFK .
Reply text: 34.8

Inquiry: Fill in: % CD4 Stain of 75110_08M20A (antibody, V domains shown) VH: QVQLQESDPGLVKPSETLSLTCTVSGGSISSYYWSWIRQPAGKGLEWIGRIYASGSTNYNPSLKSRVTMSVDTSKNQFSLKLSSVTAADTAVYYCARDREGYYYYGMDVWGQGTTVTVSS VL: DIQMTQSPSSLSASVGDRVTITCQASQDISKYLNWYQQKPGKAPNLLIYAASNLETGVPSRFSGSGSGTDFTFTISSLQPEDIAAYYCQQYDSLPITFGQGTRLEIK is ___
Reply text: 34.1

Inquiry: Consider the binder 75110_09N20A (antibody, V domains shown) VH: EVQLVESGGGLVQPGGSLRLSCAASGFTFSSYWMSWVRQAPGKGLEWVANINEDGSEKYYVDSVKGRFTISRDNAKNSLYLQMNSLRAEDTAVYYCVREGGQWLALDYWGQGTLVTVSS VL: DIQMTQSPSSVSASVGDRVTITCRASQGISSWLAWYQQKPGKAPKLLIYAASSLQSGVPSSFSGSGSGTDFTLTINSLQPEDFATYYCQQANSFPWTFGQGTKVAIK and give its measured % CD4 Stain.
Reply text: 37.5
